Assay Overview: Human HepG2 cell viability assay in 384 well format
Assay type: toxicity, cell-based
Design: dose 125 nL, time 70.5 hour; concentration not given beside the values
Setup Conditions: HepG2 cells, read-out: Inhibition
Property Label: cytotoxicity at 70.5 h
Answer with the value and then the unit.

Please review the entries below; each comes with its answer.
Compound	cytotoxicity at 70.5 h
CCO[C@H]1CO[C@@]2(CCCN(S(=O)(=O)c3cccnc3)C2)C1	-11.8%
c1coc(CN2C[C@H](OCC3CCOCC3)[C@H]3COC[C@H]32)c1	-15.3%
c1ccc(-n2ccc(CN3CCCCC3Cn3cncn3)n2)cc1 (centres undefined)	-12.9%

# query: cytotoxicity at 70.5 h of entry CCc1nnc2n1CCN(Cc1noc(-c3cccc(C)c3)n1)C2 -2.11%

Return reported cytotoxicity at 70.5 h; argument: COC(=O)c1ccc2c(-c3ccnc(NCCO)n3)c[nH]c2c1 -1.71%

Given the compound Cc1ccc(CN(C)C(C(=O)O)c2ccc3c(c2)OCO3)o1 (centres undefined) , what is its reported cytotoxicity at 70.5 h? -7.76%

cytotoxicity at 70.5 h lookup needed for CC(C)c1cc(N2CCN(c3ccc(O)cc3)CC2)n2nccc2n1 , thanks. -11.5%

For the compound shown here, COc1ccc(CN(Cc2ccccn2)Cc2cncn2C)cc1 , give the reported cytotoxicity at 70.5 h. -1.37%

----------
Assay Overview: Human HepG2 cell viability assay in 384 well format
Type: toxicity, cell-based
Set-up: dose 125 nL, time 70.5 hour; concentration not given beside the values
Setup Conditions: HepG2 cells, read-out: Inhibition
Property Label: cytotoxicity at 70.5 h (%)
Just the number in %, nothing appended.

Molecule	Units Of Measure	cytotoxicity at 70.5 h
O=C(c1cccnc1)N1C[C@@H]2OCCN(CCN3CCCC3)[C@@H]2C1	%	-10
O=C(CCN1CCOC(C(F)(F)F)C1)NCc1cccc(Cl)c1 (centres undefined)	%	-5.6
Cc1cc(CNC(=O)C(c2ccc(F)cc2)N(C)C)n[nH]1 (centres undefined)	%	7.79
OCC1CCCN1c1cc(NCc2cccs2)ncn1 (centres undefined)	%	17.3

Reported cytotoxicity at 70.5 h, molecule CCN(C(=O)c1c(Cl)cnn1CC)C(C)C(N)=O (centres undefined) : ____ -11.3

Query (molecule): O=C(O)c1ccccc1-c1cnc(Cn2c(=O)cc[nH]c2=O)s1 ; field requested: cytotoxicity at 70.5 h -6.43

Report cytotoxicity at 70.5 h for COCC(=O)NCc1cc(=O)n2c(n1)CN(C)CCC2 please. -3.22

Field request: cytotoxicity at 70.5 h | item: CCCn1nnnc1CN(c1ccc(C)cc1)C(C)C -5.93

Reported cytotoxicity at 70.5 h for O=C1CCC(CCC(=O)N2CCC2c2cccs2)=NN1 (centres undefined) : what is it? -13.3

State the recorded cytotoxicity at 70.5 h for this entry: CNC(=O)c1c(C)cccc1NCc1noc(C2CC2)n1 -2.54

cytotoxicity at 70.5 h lookup needed for O=C1CCN(C(=O)NCc2cccc(Oc3ccccc3)c2)CCN1 , thanks. -6.34

Record request: cytotoxicity at 70.5 h value, item O=C(O)c1cc2c(nc1-c1ccoc1)CCN(CC1CCOC1)CC2 (centres undefined) -13.1

Looking for the measured cytotoxicity at 70.5 h of CN(C)CCO[C@H]1CN(Cc2ccc3c(c2)OCO3)[C@@H]2COC[C@H]12 , can you help? -4.2

Could you share which cytotoxicity at 70.5 h value was measured for COc1ccc2cc(C(=O)N3CCCCC3Cn3cccn3)[nH]c2c1 (centres undefined) ? -3.69
